We begin with a simple list: items and their reported melting point.

Examples with answers:
>  <Molecule>
CCN(CC(O)CCl)c1ccc2c(c1)C(=O)N(C)C2=O (stereo not given)

>  <melting point>
123 °C

$$$$
>  <Molecule>
O=c1ccc(S(=O)(=O)c2cc3ccc(Cl)cc3[nH]2)n[nH]1

>  <melting point>
> 250 °C

$$$$
>  <Molecule>
CCOC(=O)c1cc(S(=O)C(F)(F)C(F)F)c(-c2ccc(Cl)cc2)[nH]1 (stereo not given)

>  <melting point>
138 to 140 °C

$$$$
>  <Molecule>
COCn1ncc2cc(C(=O)NN)ccc21

>  <melting point>
141 to 142 °C

$$$$
>  <Molecule>
COc1ccc2ccc(-n3nc(OCCN4CCOCC4)cc3C)cc2c1

>  <melting point>
143 to 147 °C

$$$$
>  <Molecule>
CCCCNc1c(CO)cnc2c1cnn2CC

>  <melting point>
60 to 72 °C

$$$$
>  <Molecule>
O=C(c1ccc2c(c1)OCCO2)c1ccc2nc(Cl)nc(-c3cccc(Cl)c3)c2c1

>  <melting point>
198 °C

$$$$
>  <Molecule>
COC(=O)c1cc2c(cnn2C)nc1C(=O)OC

>  <melting point>
148 to 149 °C

$$$$
>  <Molecule>
O=C(N1CCOCC1)C(c1ccccc1)(c1ccccc1)c1ncc[nH]1

>  <melting point>
113 °C

$$$$

Field: next molecule
Request the reported melting point associated with CCCCc1cc2cccnc2[nH]1
46 to 47 °C
